system: Calf thymus DNA; experiment: Binding affinity to calf thymus DNA assessed as change in melting temperature at compound to calf thymus DNA polynucleotide ratio of 0.3 by spectrophotometric analysis; format: nucleic-acid assay; details: Bos taurus
Doc: threshold 3 °C (exclusive). Items with ΔTm beneath it return Satisfied; others return Not satisfied.

Study these solved cases before continuing.
Q) Does the reported ΔTm of Clc1ccc2[nH]c(-c3ccc(Cn4cc(COc5ccc(OCc6cn(Cc7ccc(-c8nc9cc(Cl)ccc9[nH]8)o7)nn6)cc5)nn4)o3)nc2c1 stay below 3 °C?
A) Satisfied

Q) Does the reported ΔTm of Cl.Cl.c1cc2[nH]c(-c3ccc(Cn4cc(COCc5cn(Cc6ccc(-c7nc8cc(C9=NCCN9)ccc8[nH]7)o6)nn5)nn4)o3)nc2cc1C1=NCCN1 stay below 3 °C?
A) Not satisfied

Continuing:
Q) Does the reported ΔTm of CC(C)NC(=N)c1ccc2[nH]c(-c3ccc(Cn4cc(COCc5cn(Cc6ccc(-c7nc8cc(C(=N)NC(C)C)ccc8[nH]7)o6)nn5)nn4)o3)nc2c1 stay below 3 °C?
A) Not satisfied

Q) Does the reported ΔTm of c1ccc2[nH]c(-c3ccc(Cn4cc(COc5ccc(OCc6cn(Cc7ccc(-c8nc9ccccc9[nH]8)o7)nn6)cc5)nn4)o3)nc2c1 stay below 3 °C?
A) Not satisfied

Q) Does the reported ΔTm of Cl.Cl.c1cc2[nH]c(-c3ccc(Cn4cc(CCCc5cn(Cc6ccc(-c7nc8cc(C9=NCCN9)ccc8[nH]7)o6)nn5)nn4)o3)nc2cc1C1=NCCN1 stay below 3 °C?
A) Not satisfied

Q) Does the reported ΔTm of c1ccc2[nH]c(-c3ccc(Cn4cc(COCc5cn(Cc6ccc(-c7nc8ccccc8[nH]7)o6)nn5)nn4)o3)nc2c1 stay below 3 °C?
A) Satisfied
